Recorded ED50 values for a group of molecules are listed next.
system: ADP induced platelet aggregation; assay: In vivo/in vitro ADP induced platelet aggregation after I.P. dosing of rabbits; set-up: species or system rabbit; conditions: Oryctolagus cuniculus, ip, 1 to 2 hours after dosing, dose for 50% inhibition of aggregation
metric: ED50 (mg/kg)

> print(dat)
                                    molecule                       system.name  metric  comparative.sign  observed.value
 1                    O=C1CN2Cc3ccccc3N=C2N1  ADP induced platelet aggregation    ED50                 >              72
 2                 Cc1cccc2c1N=C1NC(=O)CN1C2  ADP induced platelet aggregation    ED50                 >              10
 3               O=C1CCN2Cc3cc(Br)ccc3N=C2N1  ADP induced platelet aggregation    ED50                 =               9
 4                O=C1CN2Cc3cccc(Cl)c3N=C2N1  ADP induced platelet aggregation    ED50                 =               6
 5  CC1c2ccccc2N=C2NC(=O)CN21 (stereo not shown)  ADP induced platelet aggregation    ED50                 =              35
 6                O=C1CN2Cc3cc(Cl)ccc3N=C2N1  ADP induced platelet aggregation    ED50                 >              10
 7                O=C1CN2Cc3cc(Br)ccc3N=C2N1  ADP induced platelet aggregation    ED50                 =               5
 8                O=C1CN2Cc3ccc(Cl)cc3N=C2N1  ADP induced platelet aggregation    ED50                 =              18
 9              COc1ccc2c(c1)CN1CC(=O)NC1=N2  ADP induced platelet aggregation    ED50                 =               4
10                COc1cccc2c1CN1CC(=O)NC1=N2  ADP induced platelet aggregation    ED50                 =               4
11               O=C1CCN2Cc3c(Cl)cccc3N=C2N1  ADP induced platelet aggregation    ED50                 =               8
12                 Cc1cccc2c1CN1CC(=O)NC1=N2  ADP induced platelet aggregation    ED50                 =             0.6
13               Cc1ccc2c(c1)CN1CC(=O)NC1=N2  ADP induced platelet aggregation    ED50                 >              10
14             O=C1CN2Cc3cc4c(cc3N=C2N1)OCO4  ADP induced platelet aggregation    ED50                 >              50
15                O=C1CN2Cc3c(Cl)cccc3N=C2N1  ADP induced platelet aggregation    ED50                 =               2
16                 O=C1CN2Cc3ccc(F)cc3N=C2N1  ADP induced platelet aggregation    ED50                 >              10
17      O=C1CN2Cc3cc([N+](=O)[O-])ccc3N=C2N1  ADP induced platelet aggregation    ED50                 >              10
18            COc1cc2c(cc1OC)N=C1NC(=O)CN1C2  ADP induced platelet aggregation    ED50                 =               4
19            COc1ccc2c(c1OC)CN1CC(=O)NC1=N2  ADP induced platelet aggregation    ED50                 =             0.7
20                Cc1cccc2c1CN1CCC(=O)NC1=N2  ADP induced platelet aggregation    ED50                 >              10
21             COc1ccc2c(c1)CN1CCC(=O)NC1=N2  ADP induced platelet aggregation    ED50                 >              10
22               COc1cccc2c1CN1CCC(=O)NC1=N2  ADP induced platelet aggregation    ED50                 =               8
